# subjectOfTest: T1, human IL-18BP (interleukin-18 binding protein, isoform A) (human, UniProt O95998 31-194)
# T1 sequence: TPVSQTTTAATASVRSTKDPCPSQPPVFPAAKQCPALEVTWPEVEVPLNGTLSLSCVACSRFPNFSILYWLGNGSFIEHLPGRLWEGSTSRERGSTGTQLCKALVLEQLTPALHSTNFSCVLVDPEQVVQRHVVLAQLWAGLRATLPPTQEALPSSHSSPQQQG
# assayText: cell-based or functional assay
metricName: EC50 in PBMC Assay 1 (endogenous IL-18BP), IFNγ (nM)
API: value field is a number in nM; no unit string.

# count of solved cases: 4
binder: SA307a (antibody, human IgG1, V domains shown, humanized; human IgG1 (suffix a), kappa) VH: QVQLQESGPGLVKPSQTLSLTCTVSGYSITQDYNAHWIRQPPGKGLEWIGYIHYSGSTNYNPSLKSRVTISRDTSKNQFSLKLSSVTAADTAVYYCARNYGSIYVNYFDYWGQGTLVTVSS VL: EIVLTQSPATLSLSPGERATLSCSASSSVSYMYWYQQKPGQAPRPLIYRTSNLASGIPARFSGSGSGTDFTLTISSLEPEDFAVYYCQQYHSYPTFGGGTKVEIK
valueMeasured: 1.6
--
binder: SA316a (antibody, human IgG1, V domains shown, humanized; human IgG1 (suffix a), kappa) VH: QVQLQESGPGLVKPSQTLSLTCTVSGYSITSDYNAHWIRQPPGKGLEWIGYIHYSGSTYYNPSLKSRVTISRDTSKNQFSLKLSSVTAADTAVYYCARNYGSIYVNYFDYWGQGTLVTVSS VL: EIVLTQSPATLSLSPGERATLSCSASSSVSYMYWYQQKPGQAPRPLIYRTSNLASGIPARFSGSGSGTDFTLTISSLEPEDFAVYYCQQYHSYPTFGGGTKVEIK
valueMeasured: 0.6
--
binder: SA326a (antibody, human IgG1, V domains shown, humanized; human IgG1 (suffix a), kappa) VH: QVQLQESGPGLVKPSQTLSLTCTVSGYSITSDYNAHWIRQPPGKGLEWIGYIHYSGSTNYNPSLKSRVTISRDTSKNQFSLKLSSVTAADTAVYYCARNYGSIYVNYFDYWGQGTLVTVSS VL: EIVLTQSPATLSLSPGERATLSCSASSSVSYMYWYQQKPGQAPRPLIYRTSNLASGIPARFSGSGSGTDFTLTISSLEPEDFAVYYCQLYHSYPTFGGGTKVEIK
valueMeasured: 7.5
--
binder: SA337a (antibody, human IgG1, V domains shown, humanized; human IgG1 (suffix a), kappa) VH: QVQLQESGPGLVKPSQTLSLTCTVSGYSITQDYNAHWIRQPPGKGLEWIGYIHYSGQTNYNPSLKSRVTISRDTSKNQFSLKLSSVTAADTAVYYCARNYGSIYVNYFDYWGQGTLVTVSS VL: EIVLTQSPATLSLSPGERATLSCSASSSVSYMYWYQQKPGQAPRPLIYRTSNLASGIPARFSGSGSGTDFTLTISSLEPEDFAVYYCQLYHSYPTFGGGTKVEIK
valueMeasured: 1

Challenge: What does the record list as EC50 in PBMC Assay 1 (endogenous IL-18BP), IFNγ for SA320a (antibody, human IgG1, V domains shown, humanized; human IgG1 (suffix a), kappa) VH: QVQLQESGPGLVKPSQTLSLTCTVSGYSITQDYNAHWIRQPPGKGLEWIGYIHYSGQTYYNPSLKSRVTISRDTSKNQFSLKLSSVTAADTAVYYCARNFGSIYVNYFDYWGQGTLVTVSS VL: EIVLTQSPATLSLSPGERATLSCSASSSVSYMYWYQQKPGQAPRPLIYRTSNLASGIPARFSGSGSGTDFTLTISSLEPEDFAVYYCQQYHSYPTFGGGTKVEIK ?
Response given: 0.3
